- TGT: hGSK3b (Homo sapiens)
- Construct: purchased Cerep (LANCE kinase assay platform, contract assay)
- Sequence (P49841 whole entry): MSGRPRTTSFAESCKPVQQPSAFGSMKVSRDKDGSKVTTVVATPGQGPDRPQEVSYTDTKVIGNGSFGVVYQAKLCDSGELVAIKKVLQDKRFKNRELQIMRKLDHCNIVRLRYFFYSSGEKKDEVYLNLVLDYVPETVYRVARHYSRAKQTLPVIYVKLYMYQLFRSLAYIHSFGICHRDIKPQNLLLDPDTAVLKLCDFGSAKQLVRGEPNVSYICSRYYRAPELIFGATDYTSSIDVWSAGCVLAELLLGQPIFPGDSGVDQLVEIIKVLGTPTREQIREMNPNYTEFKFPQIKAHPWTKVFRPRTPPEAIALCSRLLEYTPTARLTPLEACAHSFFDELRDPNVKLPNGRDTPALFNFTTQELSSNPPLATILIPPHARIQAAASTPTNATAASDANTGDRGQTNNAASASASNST
- ASSAY REMARKS: Cerep LANCE kinase assay hGSK3b (S1 assay 34)
- Type: biochemical
- ASSAY CONDITIONS: assay number 34
Reported hGSK3b LANCE IC50/EC50 values for the following molecules.

>  <MOLECULE>
CC(C)C[C@H](NC(=O)[C@H](CCc1ccccc1)NC(=O)CN1CCOCC1)C(=O)N[C@@H](Cc1ccccc1)C(=O)N[C@@H](CC(C)C)C(=O)[C@@]1(C)CO1 [NCGC00249613-02]

>  <hGSK3b LANCE IC50/EC50>
> 20 µM

$$$$
>  <MOLECULE>
CC[C@]1(O)C[C@@H]2CN(CCc3c([nH]c4ccccc34)[C@@](C(=O)OC)(c3cc4c(cc3OC)N(C)[C@H]3[C@@](O)(C(=O)OC)[C@H](OC(C)=O)[C@]5(CC)C=CCN6CC[C@]43[C@@H]65)C2)C1.O=S(=O)(O)O [NCGC00263548-01]

>  <hGSK3b LANCE IC50/EC50>
> 20 µM

$$$$

Requested field: hGSK3b LANCE IC50/EC50. Item: CCCOc1ccc2nc(NC(=O)OC)[nH]c2c1 [NCGC00018238-09]
> 20 µM
